Source listed as patent US12091426B2.

Biological target: HPK1 (Homo sapiens)
Construct: A HiBiT tag was introduced by CRISPR on the N terminus of HPK1 in Jurkat cells; host or cells: Jurkat cells (ATCC TIB-152), monoclonal line with CRISPR knock-in of HiBiT at the endogenous HPK1 locus
Sequence (Q92918 whole entry): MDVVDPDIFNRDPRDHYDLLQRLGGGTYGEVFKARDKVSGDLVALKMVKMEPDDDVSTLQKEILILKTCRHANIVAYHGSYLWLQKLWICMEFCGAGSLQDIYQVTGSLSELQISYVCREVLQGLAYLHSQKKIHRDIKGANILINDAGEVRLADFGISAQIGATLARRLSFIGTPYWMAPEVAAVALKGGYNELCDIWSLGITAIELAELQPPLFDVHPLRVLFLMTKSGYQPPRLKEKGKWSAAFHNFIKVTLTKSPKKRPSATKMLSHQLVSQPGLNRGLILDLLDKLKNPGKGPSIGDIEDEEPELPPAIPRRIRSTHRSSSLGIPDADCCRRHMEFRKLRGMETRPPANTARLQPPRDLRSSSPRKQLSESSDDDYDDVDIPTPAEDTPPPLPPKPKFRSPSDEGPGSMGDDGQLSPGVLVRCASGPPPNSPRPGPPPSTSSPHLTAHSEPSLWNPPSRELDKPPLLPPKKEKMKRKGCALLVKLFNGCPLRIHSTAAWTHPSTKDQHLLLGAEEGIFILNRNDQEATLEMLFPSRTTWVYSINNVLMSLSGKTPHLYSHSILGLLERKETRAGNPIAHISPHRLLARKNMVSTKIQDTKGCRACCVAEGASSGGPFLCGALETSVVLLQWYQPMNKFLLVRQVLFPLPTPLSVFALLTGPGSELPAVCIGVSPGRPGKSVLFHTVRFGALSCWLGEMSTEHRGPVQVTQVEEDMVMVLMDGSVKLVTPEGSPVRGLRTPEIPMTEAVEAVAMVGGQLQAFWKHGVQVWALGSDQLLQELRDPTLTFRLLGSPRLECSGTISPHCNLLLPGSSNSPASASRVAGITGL
Assay: HPK1 Cellular HiBit Degradation Assay
Assay type: cell-based
Details: HiBiT HPK1 Jurkat cells, 24 hrs; concentration at which 50% of HPK1 was remaining; read-out: DC50 Category
readout-kind: DC50

Exercise: What value of DC50 has been reported for the following compound? CC(C)n1cnc2cc(-c3ccc4c(c3)N([C@H]3C[C@@H](N5CCCCC5)C3)C(=O)C43CCN(C(=O)[C@H]4CN(C(=O)C5CCN(c6ccc(C7CCC(=O)NC7=O)cn6)CC5)C[C@H]4C)CC3)nc(NC3CC3)c21 (mixture of isomers)
Solution: < 100 nM

Exercise: What do you get for CC(C)n1cnc2cc(-c3ccc4c(c3)N([C@H]3C[C@@H](N5CC6CCC(C6)C5)C3)C(=O)C43CCN(C(=O)C4(C)CCN(C(=O)C5CCN(c6ccc(C7CCC(=O)NC7=O)cn6)CC5)CC4)CC3)nc(NC3CC3)c21 (mixture of isomers) ?
Solution: < 100 nM

Exercise: And for CC(C)n1cnc2cc(-c3ccc4c(c3)N([C@H]3C[C@@H](N5CCCCC5)C3)C(=O)C43CCN(C(=O)C4CCN(C(=O)[C@H]5CC[C@H](C(=O)N6CCc7cc(N8CCC(=O)NC8=O)ccc7C6)CC5)CC4)CC3)nc(Nc3ccccc3F)c21 ?
Solution: 100 to 500 nM

Exercise: Do the same for CC(C)n1cnc2cc(-c3ccc4c(c3)N([C@H]3C[C@@H](N5CCCCC5)C3)C(=O)C43CCN(C(=O)C4CCN(C(=O)C5CCN(c6ccc(C7CCC(=O)NC7=O)cn6)CC5)CC4)CC3)nc(NC3CCOCC3)c21 (mixture of isomers) please
Solution: < 100 nM

Exercise: Try CC(C)n1cnc2cc(-c3ccc4c(c3)N([C@H]3C[C@@H](N5CCCCC5)C3)C(=O)C43CCN(C(=O)[C@H]4CN(C(=O)C5CCN(c6ccc(C7CCC(=O)NC7=O)cc6)CC5)CC4(C)C)CC3)nc(NC3CC3)c21 (mixture of isomers) next.
Solution: < 100 nM

Exercise: Repeat with CC(C)n1cnc2cc(-c3ccc4c(c3)N([C@H]3C[C@@H](N5CCCCC5)C3)C(=O)C43CCN(C(=O)c4ccc(CN5CCN(C(=O)C6CCN(c7ccc(C8CCC(=O)NC8=O)cn7)CC6)CC5)cc4)CC3)nc(NC3CC3)c21 (mixture of isomers)
Solution: 100 to 500 nM

Exercise: Proceed to CC(C)n1cnc2cc(-c3ccc4c(c3)N([C@H]3C[C@@H](N5CCCCC5)C3)C(=O)C43CCN(C(=O)CN4CCN(C(=O)C5CCN(c6ccc(C7CCC(=O)NC7=O)cn6)CC5)CC4)CC3)nc(NC3CC3)c21 (mixture of isomers)
Solution: < 100 nM

Exercise: Also CC(C)n1cnc2cc(-c3ccc4c(c3)N([C@H]3C[C@@H](N5CCCCC5)C3)C(=O)C43CCN(CC(=O)N(C)C4CCN(C(=O)C5CCN(c6cc(C7CCC(=O)NC7=O)ccn6)CC5)CC4)CC3)nc(NC3CC3)c21 (stereo partly shown) ?
Solution: 100 to 500 nM

Exercise: // next record CC(C)n1cnc2cc(-c3ccc4c(c3)N([C@H]3C[C@@H](N5CCCCC5)C3)C(=O)C43CCN(C(=O)C4CCN(C(=O)C5CCN(c6ccc(C7CCC(=O)NC7=O)nn6)CC5)CC4)CC3)nc(NC3CC3)c21 (mixture of isomers)
Solution: < 100 nM

Exercise: CC(C)n1cnc2cc(-c3ccc4c(c3)N([C@H]3C[C@@H](N5CCCCC5)C3)C(=O)C43CCN(C(=O)C4CCN(C(=O)CN5CCN(c6ccc(C7CCC(=O)NC7=O)cn6)CC5)CC4)CC3)nc(Nc3ccncc3F)c21 (mixture of isomers) , same question.
Solution: 100 to 500 nM

Exercise: What do you have for CC(C)n1cnc2cc(-c3ccc4c(c3)N([C@H]3C[C@@H](N5CCCCC5)C3)C(=O)C43CCN(CC(=O)N(C)C4CCN(C(=O)C5CCN(c6ccc(C7CCC(=O)NC7=O)cn6)CC5)CC4)CC3)nc(NC3CC3)c21 (stereo partly shown) ?
Solution: 100 to 500 nM

Exercise: Further, for CC(C)n1cnc2cc(-c3ccc4c(c3)N([C@H]3C[C@@H](N5CCCCC5)C3)C(=O)C43CCN(C(=O)C4C5CCC4CN(C(=O)C4CCN(c6ccc(C7CCC(=O)NC7=O)cn6)CC4)C5)CC3)nc(NC3CC3)c21 (mixture of isomers) ?
Solution: < 100 nM

Exercise: How about this compound: CC(C)n1cnc2cc(-c3ccc4c(c3)N([C@H]3C[C@@H](N5CCCCC5)C3)C(=O)C43CCN(C(=O)C4CCN(C(=O)N5CCC(c6ccc(C7CCC(=O)NC7=O)cn6)CC5)CC4)CC3)nc(Nc3ccccc3F)c21 (mixture of isomers)
Solution: 500 to 1000 nM

Exercise: What about this compound? CC(C)n1cnc2cc(-c3ccc4c(c3)N([C@H]3C[C@@H](N5CCCCC5)C3)C(=O)C43CCN(C(=O)[C@@H]4CCN(C(=O)[C@H]5CC[C@H](N(C)c6ccc(C7CCC(=O)NC7=O)cn6)CC5)C4)CC3)nc(NC3CC3)c21 (mixture of isomers)
Solution: < 100 nM

Exercise: Also need CC(C)n1cnc2cc(-c3ccc4c(c3)N([C@H]3C[C@@H](N5CCCCC5)C3)C(=O)C43CCN(C(=O)[C@@H]4CCN(C(=O)[C@H]5CC[C@H](Oc6ccc(C7CCC(=O)NC7=O)cc6)CC5)C4)CC3)nc(Nc3ccncc3F)c21 (stereo partly shown) , thanks.
Solution: < 100 nM

Exercise: Then CC(C)n1cnc2cc(-c3ccc4c(c3)N([C@H]3C[C@@H](N5CCCCC5)C3)C(=O)C43CCN(C(=O)C4CCN(C(=O)C5CCN(c6ccc(N7CCC(=O)NC7=O)cc6)CC5)CC4)CC3)nc(NC3CC3)c21 ?
Solution: < 100 nM

====

Molecular target: HPK1 (Homo sapiens)
Construct: A HiBiT tag was introduced by CRISPR on the N terminus of HPK1 in Jurkat cells; host or cells: Jurkat cells (ATCC TIB-152), monoclonal line with CRISPR knock-in of HiBiT at the endogenous HPK1 locus
Experiment: HPK1 Cellular HiBit Degradation Assay
Format: cell-based
Conditions: HiBiT HPK1 Jurkat cells, 24 hrs; concentration at which 50% of HPK1 was remaining; read-out: DC50 Category
Assignment: determine reported DC50 for the given molecules.

Exercise: Provide value of DC50 for this record tested with HPK1 (Homo sapiens): CC(C)n1cnc2cc(-c3ccc4c(c3)N([C@H]3C[C@@H](N5CCCCC5)C3)C(=O)C43CCN(C(=O)C4(C)CCN(C(=O)C5CCN(c6ccc(C7CCC(=O)NC7=O)cc6)CC5)CC4)CC3)nc(Nc3ccccc3F)c21 (mixture of isomers) [Example 110]
Solution: < 100 nM

Exercise: Next record, please: CC(C)n1cnc2cc(-c3ccc4c(c3)N([C@H]3C[C@@H](N5CCCCC5)C3)C(=O)C43CCN(C(=O)C4CCN(C(=O)[C@H]5CC[C@H](Oc6ccc(C7CCC(=O)NC7=O)cc6)CC5)CC4)CC3)nc(NC3CC3)c21 (mixture of isomers) [Example 59]
Solution: < 100 nM

Exercise: Now the same for CC(C)Nc1nc(-c2ccc3c(c2)N([C@H]2C[C@@H](N4CCCCC4)C2)C(=O)C32CCN(C(=O)C3(C)CCN(C(=O)C4CCN(c5ccc(C6CCC(=O)NC6=O)cn5)CC4)CC3)CC2)cc2ncn(C(C)C)c12 (stereo partly shown) [Example 166]
Solution: < 100 nM

Exercise: Now give it for CC(C)n1cnc2cc(-c3ccc4c(c3)N([C@H]3C[C@@H](N5CCCCC5)C3)C(=O)C43CCN(C(=O)C4(C)CCN(C(=O)C[C@H]5CCN(c6ccc(C7CCC(=O)NC7=O)cn6)C5)CC4)CC3)nc(NC3CC3)c21 (stereo partly shown) [Example 154] too.
Solution: 100 to 500 nM

Exercise: Same thing, different molecule: CC(C)n1cnc2cc(-c3ccc4c(c3)N([C@H]3C[C@@H](N5CCCCC5)C3)C(=O)C43CCN(C(=O)C[C@@H]4CCCN(C(=O)C5CCN(c6ccc(C7CCC(=O)NC7=O)cn6)CC5)C4)CC3)nc(NC3CC3)c21 (mixture of isomers) [Example 298]
Solution: 100 to 500 nM

Exercise: What do we get for CC(C)n1cnc2cc(-c3ccc4c(c3)N([C@H]3C[C@@H](N5CCCCC5)C3)C(=O)C43CCN(C(=O)C4(C)CCN(C(=O)C5CCN(c6ccc(C7CCC(=O)NC7=O)c(F)c6)CC5)CC4)CC3)nc(NC3CC3)c21 (mixture of isomers) [Example 210] ?
Solution: < 100 nM

Exercise: And what about the molecule CC(C)n1cnc2cc(-c3ccc4c(c3)N([C@H]3C[C@@H](N5CCCCC5)C3)C(=O)C43CCN(C(=O)[C@H]4CC[C@H](C(=O)N5CCC(N(C)c6ccc(C7CCC(=O)NC7=O)cn6)CC5)CC4)CC3)nc(Nc3ccncc3F)c21 (mixture of isomers) [Example 139] ?
Solution: < 100 nM

Exercise: Input CC(C)n1cnc2cc(-c3ccc4c(c3)N([C@H]3C[C@@H](N5CCCCC5)C3)C(=O)C43CCN(C(=O)C4CCN(C(=O)CN5CCN(c6ccc(C7CCC(=O)NC7=O)cn6)CC5)CC4)CC3)nc(NC3CC3)c21 (mixture of isomers) [Example 94]
Solution: < 100 nM

Exercise: How about CC(C)n1cnc2cc(-c3ccc4c(c3)N([C@H]3C[C@@H](N5CCCCC5)C3)C(=O)C43CCN(C(=O)[C@@H]4CCN(C(=O)[C@H]5CC[C@H](N(C)c6ccc(C7CCC(=O)NC7=O)cn6)CC5)C4)CC3)nc(Nc3ccccc3F)c21 (mixture of isomers) [Example 127] ?
Solution: < 100 nM

Exercise: Now the same for CC(C)n1cnc2cc(-c3ccc4c(c3)N([C@H]3C[C@@H](N5CCCCC5)C3)C(=O)C43CCN(C(=O)C4(C)CCN(C(=O)C5CCN(c6ccc(N7CCC(=O)NC7=O)cn6)CC5(F)F)CC4)CC3)nc(NC3CC3)c21 (stereo partly shown) [Example 153]
Solution: < 100 nM

Exercise: Subsequent entry: CC(C)n1cnc2cc(-c3ccc4c(c3)N([C@H]3C[C@@H](N5CCCCC5)C3)C(=O)C43CCN(C(=O)C[C@H]4CCCN(C(=O)CC5CCN(c6ccc(C7CCC(=O)NC7=O)cn6)CC5)C4)CC3)nc(NC3CC3)c21 (mixture of isomers) [Example 297]
Solution: 500 to 1000 nM

Exercise: Same for CC(C)n1cnc2cc(-c3ccc4c(c3)N([C@H]3C[C@@H](N5CCCCC5)C3)C(=O)C43CCN(C(=O)C4CCN(C(=O)C5CCN(c6ccc(N7CCC(=O)NC7=O)cn6)CC5)CC4)CC3)nc(NC3CC3)c21 [Example 79]
Solution: < 100 nM

Exercise: Could you do the same for CC(C)n1cnc2cc(-c3ccc4c(c3)N([C@H]3C[C@@H](N5CCCCC5)C3)C(=O)C43CCN(C(=O)[C@@H]4CCN(C(=O)[C@H]5CC[C@H](Oc6ccc(C7CCC(=O)NC7=O)cc6)CC5)C4)CC3)nc(NC3CC3)c21 (stereo partly shown) [Example 13] , please?
Solution: < 100 nM

Exercise: Now try CC(C)n1cnc2cc(-c3ccc4c(c3)N([C@H]3C[C@@H](N5CCCCC5)C3)C(=O)C43CCN(C(=O)C4CCN(C(=O)CC5CCN(c6ccc(C7CCC(=O)NC7=O)cn6)CC5)CC4)CC3)nc(NC3CC3)c21 (mixture of isomers) [Example 93] .
Solution: < 100 nM

Exercise: And CC(C(=O)N1CCN(C(=O)C2CCN(c3cc(C4CCC(=O)NC4=O)ccn3)CC2)CC1)N1CCC2(CC1)C(=O)N([C@H]1C[C@@H](N3CCCCC3)C1)c1cc(-c3cc4ncn(C(C)C)c4c(NC4CC4)n3)ccc12 (stereo partly shown) [Example 173] ?
Solution: 100 to 500 nM

Exercise: Try CC(C)n1cnc2cc(-c3ccc4c(c3)N([C@H]3C[C@@H](N5CCCCC5)C3)C(=O)C43CCN(C(=O)C4(C)CCN(C(=O)CC5CCN(c6ccc(C7CCC(=O)NC7=O)cn6)CC5)CC4)CC3)nc(NC3CC3)c21 (mixture of isomers) [Example 221] next.
Solution: < 100 nM
